growth inhibition for assorted molecules
# assaySummary: NCI Yeast Anticancer Drug Screen. Data for the cln2 rad14 strain (AID 165);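 also: 0% = growth equal to vehicle treated cultures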
# runConditions: S. cerevisiae cln2 rad14 strain, at 50.0 µM, stronger effect = higher value
This is part of a sample that, as a whole, favours compounds with a hit. Of some 79,000 tested, about 15% had one in any assay. Calls of active or inactive are those of the source. Rule as the data show it: active = growth inhibition above about 70%; inactive = the rest.
resultType: growth inhibition

[[record]]
molecule = "O=S1(=O)OCCC1C(O)(c1ccccc1)c1ccccc1 (stereo unspecified)"
measurement = "-49.3% (inactive)"

[[record]]
molecule = "COC(=O)c1ccccc1C1CN=NC12Cc1cc(C)ccc1C2=O (stereo unspecified)"
measurement = "-34.4% (inactive)"

[[record]]
molecule = "CSC(=Nc1ccc(Br)cc1)NC(=O)c1cc([N+](=O)[O-])cc([N+](=O)[O-])c1"
measurement = "-58% (inactive)"

[[record]]
molecule = "Cc1ccc(N=CN(C)C)c(Cl)c1"
measurement = "-16.8% (inactive)"

[[record]]
molecule = "CCCCOC(=O)C1=NNC(=O)C1"
measurement = "-10.1% (inactive)"

[[record]]
molecule = "CC(=O)Nc1c(Cl)cc2c(c1Cl)Cc1cc(N(C)C)ccc1-2"
measurement = "6.25% (inactive)"

[[record]]
molecule = "Oc1ccccc1/C=N/c1nc(-c2ccccc2)cs1.[Co].[O-]c1ccccc1/C=N/c1nc(-c2ccccc2)cs1"
measurement = "22.4% (inactive)"

[[record]]
molecule = "Cc1cc(OC(N)=S)cc(C)c1Cl"
measurement = "-6.25% (inactive)"

[[record]]
molecule = "O=C1C=C(Nc2nc(C(=O)O)cc(=O)[nH]2)c2ccccc2C1=O"
measurement = "15.9% (inactive)"

[[record]]
molecule = "O=C1C2=C(Nc3ccccc3N2)OC1c1ccccc1Cl (stereo unspecified)"
measurement = "6.7% (inactive)"

[[record]]
molecule = "CC(=O)OCC(OC(C)=O)C(OC(C)=O)C(OC(C)=O)c1cnn(-c2ccccc2)n1 (stereo unspecified)"
measurement = "-22.8% (inactive)"

